assay: Toxicity liver stage against HepG2, at 10uM; type: cell-based; parameters: test concentration 10 uM, cell line HepG2-A16-CD81EGFP; conditions: human, HepG2-A16-CD81EGFP cells; read-out: INHIBITION
The entries below are paired with their reported cytotoxicity at 10 µM.
Response body: numeric value in %, unit text excluded.

Use the examples below as a reference point.
> print(dat)
                                   molecule         assay.endpoint  readout.value
1      Cc1n[nH]cc1CNC1(Cc2ccc(Br)cc2)CCCCC1  cytotoxicity at 10 µM           14.1
2   CN(Cc1nc2c(cnn2C)c(=O)[nH]1)Cc1ccccc1Cl  cytotoxicity at 10 µM          -5.82
3  CC(SCC(=O)NC(N)=O)c1ccccc1F (configuration not stated)  cytotoxicity at 10 µM           2.96
4  Cc1cnn(CC2CCCN2C(=O)c2cc3ccccc3c(=O)[nH]2)c1 (configuration not stated)  cytotoxicity at 10 µM          -4.77
5  Cc1ccc([C@@H]2CN(C(=O)c3ccsc3)C[C@H]2NC(=O)C2CC2)cc1  cytotoxicity at 10 µM           2.93

[Q] Bench note: what cytotoxicity at 10 µM did `O=C(CSCc1ccncc1)NCc1csc(Br)c1` show?
[A] -6.57
